Target: T1, recombinant purified mouse CXCL13 (mouse, UniProt O55038 22-109, biotinylated in the ELISA of Example 1.1.A.1 (sites not given); unlabelled in Biacore)
T1 construct: Bought recombinant protein (R&D Systems); also called murine CXCL13; mCXCL13
T1 sequence: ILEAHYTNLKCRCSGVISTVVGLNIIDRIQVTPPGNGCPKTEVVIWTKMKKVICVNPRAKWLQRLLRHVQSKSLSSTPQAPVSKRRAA
Assay: ELISA, antibody captured by goat anti-mouse IgG Fc, biotinylated mouse CXCL13 detected with streptavidin-HRP
Reported values of EC50 for individual entries
endpoint_label: EC50 (nM)

binder: XW25-7C7-5E5 (antibody, V domains shown, Mouse anti-mouse CXCL13 monoclonal antibody from hybridoma) VH: QVQLQQPGTELVKPGASVKLSCKASGYNFATYWMHWVKQRPGQGLEWIGNINPSDGGTNFNEKFNNKATLTVDKSSSTAYMHLSSLTSEDSAVYYCAKWGGHYVLYWYFDVWGTGTTVTVSS VL: DIVLTQSPATLSVTPGDSVSLSCRASQNINNNLHWYQQKSHESPRLLITYTSQSISGIPSRFSGSGSGTDFTLSINSVESEDVGVYFCQQSDSWPLTFGAGTKLELKR
endpoint_label: EC50
numeric_readout: 0.02
--
binder: XW25-8H6-4F9 (antibody, V domains shown, Mouse anti-mouse CXCL13 monoclonal antibody from hybridoma) VH: QVQLQQPGTELVKPGASVKLSCKASGYNFATYWMHWVKQRPGQGLEWIGNINPSDGGTNYNEKFNNKATLTVDKSSSTAYMQLSSLTSEDSAVYYCAKWGGHYVLYWYFDVWGTGTTVTVSS VL: DIVLTQSPATLSVTPGDSVSLSCRASQSINNNLHWYQQESHESPRLLITYASQSISGIPSRFSGSGSGTDFTLSINSVESEDFGVYFCQQSNSWPLTFGAGTKLELKR
endpoint_label: EC50
numeric_readout: 0.03
--
binder: XW25-6A2-2F10 (antibody, V domains shown, Mouse anti-mouse CXCL13 monoclonal antibody purified from hybridoma) VH: QVQLQQPGTELVKPGASVKLSCKASGYNFATYWVHWVKQRPGQGLEWIGNINPSDGGTSYNEKFSKKATLTVDKSSSTAYMELSSLTSEDSAVYYCAKWGGHYVLYWSFDVWGTGTTVTVSS VL: DIVLTQSPATLSVTPGDSVSLSCRASQSISNNLHWYQQRSHESPRLIITHVSQSISGIPSRFSGSGSGTDFIFSINSVESEDFGVYFCQQSNSWPLTFGAGTKLELKR
endpoint_label: EC50
numeric_readout: 0.02
